Catalogue of binders with associated Fold decrease in affinity
- target-or-system: T1, human NMI (N-myc Interacting protein), recombinant protein (human, UniProt Q13287 1-307, limits assumed)
- T1 construct: Gene ID: 9111; also called hNMI; antigen
- T1 sequence (looked up): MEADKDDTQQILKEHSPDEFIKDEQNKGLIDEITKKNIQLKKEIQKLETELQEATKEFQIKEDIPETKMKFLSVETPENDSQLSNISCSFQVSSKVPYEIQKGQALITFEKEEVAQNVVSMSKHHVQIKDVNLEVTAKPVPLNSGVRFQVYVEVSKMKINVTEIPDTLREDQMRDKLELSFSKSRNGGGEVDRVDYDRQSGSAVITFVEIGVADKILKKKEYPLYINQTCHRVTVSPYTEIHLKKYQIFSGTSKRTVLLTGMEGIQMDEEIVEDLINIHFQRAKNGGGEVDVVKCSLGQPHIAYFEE
- assay-protocol: ELISA EC50 against parent B-8
readout-kind: Fold decrease in affinity

>>> reading("B-8-2 (antibody, V domains shown, also called B-8 S91R (VL)) VH: QSLEESGGDLVKPGASLTLTCTASGFSFSSSYYMCWVRQAPGKGLEWIACIYAGSSGSTYYASWAKGRFTISKTSSTTVTLQMTSLTAADTATYFCAREYSYDDYGDFWGFNLWGPGTLVTVSS VL: ALVMTQTPSSVSAAVGGTVTINCQASQNIYTNLAWYQQKPGQPPKLLIYGASNLESGVPSRFKGSGSGTEYTLTISDLECDDAATYYCQSRLYSRIADRANAFGGGTEVVVK")
"4.68 fold"
>>> reading("B-8-1 (antibody, V domains shown, also called B-8 Y93E (VL)) VH: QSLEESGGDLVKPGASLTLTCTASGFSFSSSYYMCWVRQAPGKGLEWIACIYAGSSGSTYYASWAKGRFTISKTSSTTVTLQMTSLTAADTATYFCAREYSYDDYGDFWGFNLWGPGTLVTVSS VL: ALVMTQTPSSVSAAVGGTVTINCQASQNIYTNLAWYQQKPGQPPKLLIYGASNLESGVPSRFKGSGSGTEYTLTISDLECDDAATYYCQSSLESRIADRANAFGGGTEVVVK")
"2.26 fold"
